Assay: Thermodynamic solubility of compound in phosphate buffer at pH 6.8 measured after 15 mins by shake-flask method based LC-HRMS analysis
Type: physicochemical
Settings: read-out: Therm_solubility
ATTRIBUTE MEASURED: solubility thermodynamic at […] (µM)
# unit: µM | format: bare number

Some compounds with recorded solubility thermodynamic at […]:
MOLECULE SMILES: O=Cc1ccc2c(n1)N(C(=O)Nc1ccc(C(F)(F)F)cn1)CCC2
UNIT TEXT: µM
VAL: 4.9
//
MOLECULE SMILES: COCCNc1cc(NC(=O)N2CCCc3cc(CN(C)C(C)=O)c(C=O)nc32)ncc1C#N
UNIT TEXT: µM
VAL: 8
//
MOLECULE SMILES: COCCOc1cc(NC(=O)N2CCCc3cc(CO)c(C=O)nc32)ncc1C#N
UNIT TEXT: µM
VAL: 11

Record request: solubility thermodynamic at […] value, item COCCOc1cc(NC(=O)N2CCCc3cc(CN4CCN(C)CC4=O)c(C=O)nc32)ncc1C#N
16
